- Test System: CDK4/Cyclin D1 (Homo sapiens (Human), UniProt P11802)
- Sequence (P11802 whole entry): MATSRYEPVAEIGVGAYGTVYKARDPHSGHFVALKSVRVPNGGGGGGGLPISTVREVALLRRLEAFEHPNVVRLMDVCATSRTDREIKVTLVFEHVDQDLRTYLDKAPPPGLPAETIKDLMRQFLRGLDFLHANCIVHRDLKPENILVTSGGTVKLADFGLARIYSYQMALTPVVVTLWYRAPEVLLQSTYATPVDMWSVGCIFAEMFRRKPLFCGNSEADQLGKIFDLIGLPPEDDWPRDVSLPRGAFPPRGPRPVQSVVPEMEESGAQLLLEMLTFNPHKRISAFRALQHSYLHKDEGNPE
- Sequence (P24385 whole entry partner): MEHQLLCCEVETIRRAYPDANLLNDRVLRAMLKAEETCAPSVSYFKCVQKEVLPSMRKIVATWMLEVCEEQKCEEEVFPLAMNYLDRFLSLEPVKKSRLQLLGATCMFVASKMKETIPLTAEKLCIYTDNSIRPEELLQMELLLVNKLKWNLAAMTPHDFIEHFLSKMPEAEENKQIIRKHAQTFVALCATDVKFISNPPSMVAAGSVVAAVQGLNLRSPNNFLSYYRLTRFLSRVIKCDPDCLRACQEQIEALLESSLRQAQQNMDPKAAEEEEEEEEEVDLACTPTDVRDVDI
- Experimental Protocol: CDK4/CyclinD1 kinase inhibitory activity (Caliper mobility shift)
Measure Name: IC50

Use these answered entries as a reference point.
CC(C)NS(=O)(=O)c1ccc(Nc2ncc(Cl)c(OC3CCCC3O)n2)cc1 (single isomer, unassigned) [Example 138a]
100 to 1000 nM
[2H]C([2H])([2H])NS(=O)(=O)c1ccc(Nc2ncc(CC)c(OC3CCOCC3O)n2)cc1 (single isomer, unassigned) [Example 151a]
≥ 1000 nM
Cn1cc(S(=O)(=O)N2CCC(Nc3ncc(Br)c(OC4CCCCC4O)n3)CC2)cn1 (single isomer, unassigned) [Example 144b]
10 to 100 nM

Next, consider the following molecule.
Sample N#Cc1cnc(Nc2ccc(S(N)(=O)=O)cc2)nc1N1CCC(O)CC1 — what was its IC50?
100 to 1000 nM
